Tested on: Propionibacterium acnes
ASSAY TEXT: MIC in the agar incorporation test
Format: cell-based
CONDITION DETAILS: Cutibacterium acnes, 24 h, read-out: MIC Propionibacterium acnes

- COMPOUND: "C[n+]1ccc(Oc2ccccc2/C=C/c2ccc(-c3ccc(/C=C/c4ccccc4Oc4cc[n+](C)cc4)cc3)cc2)cc1 [formula 34]"
  MIC: "1.6 µg/mL"
- COMPOUND: "C[n+]1ccccc1COc1ccccc1/C=C/c1ccc(-c2ccc(/C=C/c3ccccc3OCc3cccc[n+]3C)cc2)cc1 [formula 32]"
  MIC: "100 µg/mL"
- COMPOUND: "COc1cccc(/C=C/c2ccc(-c3ccc(/C=C/c4cccc(OC)c4OCCCN(C)C)cc3)cc2)c1OCCCN(C)C [formula 31]"
  MIC: "7.8 µg/mL"
- COMPOUND: "CC[N+](C)(C)CCCOc1ccccc1/C=C/c1ccc(-c2ccc(/C=C/c3ccccc3OCCC[N+](C)(C)CC)cc2)cc1 [formula 33]"
  MIC: "3.9 µg/mL"
